- assay system: Poly [ADP-ribose] polymerase 1 (Homo sapiens)
- Sequence (P09874 whole entry): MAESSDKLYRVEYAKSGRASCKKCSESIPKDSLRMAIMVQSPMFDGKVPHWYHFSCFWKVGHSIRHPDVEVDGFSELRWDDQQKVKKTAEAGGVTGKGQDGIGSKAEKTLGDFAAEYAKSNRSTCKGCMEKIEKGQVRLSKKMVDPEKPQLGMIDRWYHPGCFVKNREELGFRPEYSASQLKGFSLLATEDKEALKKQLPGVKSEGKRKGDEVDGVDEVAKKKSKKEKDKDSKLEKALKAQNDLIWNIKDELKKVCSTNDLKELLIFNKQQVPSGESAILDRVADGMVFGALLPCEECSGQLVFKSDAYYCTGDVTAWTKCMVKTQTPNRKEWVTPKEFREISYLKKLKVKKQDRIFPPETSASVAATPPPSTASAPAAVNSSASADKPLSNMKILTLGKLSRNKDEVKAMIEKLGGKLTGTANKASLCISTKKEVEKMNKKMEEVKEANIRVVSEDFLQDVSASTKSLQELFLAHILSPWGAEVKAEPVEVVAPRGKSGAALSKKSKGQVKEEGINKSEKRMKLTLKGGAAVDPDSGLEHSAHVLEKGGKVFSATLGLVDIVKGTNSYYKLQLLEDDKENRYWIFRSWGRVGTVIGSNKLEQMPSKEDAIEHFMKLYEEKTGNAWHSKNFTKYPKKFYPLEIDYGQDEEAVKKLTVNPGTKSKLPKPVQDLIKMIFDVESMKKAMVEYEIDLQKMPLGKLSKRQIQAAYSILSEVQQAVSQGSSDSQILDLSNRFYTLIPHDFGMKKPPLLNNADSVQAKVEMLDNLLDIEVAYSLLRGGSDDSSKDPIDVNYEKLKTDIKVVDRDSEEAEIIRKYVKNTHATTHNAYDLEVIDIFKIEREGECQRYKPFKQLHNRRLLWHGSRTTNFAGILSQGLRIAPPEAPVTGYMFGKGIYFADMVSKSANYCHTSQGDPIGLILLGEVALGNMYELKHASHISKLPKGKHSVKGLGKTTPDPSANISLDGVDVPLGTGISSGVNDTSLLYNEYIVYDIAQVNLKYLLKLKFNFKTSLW
- protocol description: Inhibition of PARP-1 (unknown origin) assessed as incorporation of biotinylated poly ADP-ribose onto histone proteins by colorimetric analysis
readout type: IC50 (nM)

a = O=C(c1cc(Cc2n[nH]c(=O)c3ccccc23)ccc1F)N1CCNCC1
b = O=C(c1cccc(Cc2n[nH]c(=O)c3ccccc23)c1)N1CCNCC1
Which numeric IC50 is bigger, that of a or that of b ? Answer by stating the label of the chosen item.
b

====

- System: NCI-H1792
- protocol description: In vitro antiproliferative activity against human NCI-H1792 cells assessed as inhibition of cell proliferation after 72 hrs by MTT assay
- Assay type: functional, cell-based
- condition notes: NCI-H1792, 72 h
readout type: IC50 (µM)
Give just the number in µM; leave the unit off.

INSERT INTO results (line_notation, unit_abbrev, obs_value) VALUES
  ('O=C(c1cccc(Cc2n[nH]c(=O)c3ccccc23)c1)N1CCN(/[N+]([O-])=N/Oc2ccc([N+](=O)[O-])cc2[N+](=O)[O-])CC1', 'µM', 14);

--- query ---
Request the reported IC50 associated with O=C(c1cc(Cc2n[nH]c(=O)c3ccccc23)ccc1F)N1CCN(/[N+]([O-])=N/Oc2ccc([N+](=O)[O-])cc2[N+](=O)[O-])CC1
12.7

====

- protocol description: In vitro antiproliferative activity against human NCI-H1568 cells assessed as inhibition of cell proliferation after 72 hrs by MTT assay
- Assay type: functional, cell-based
- condition notes: NCI-H1568, 72 h
Listed compounds paired with reported pIC50
// returns pIC50 (minus log10 of molar concentration), number only

INSERT INTO measurements (line_notation, readout_type, obs_value) VALUES
  ('O=C(c1cc(Cc2n[nH]c(=O)c3ccccc23)ccc1F)N1CCN(/[N+]([O-])=N/Oc2ccc([N+](=O)[O-])cc2[N+](=O)[O-])CC1', 'pIC50', 5.52);

API: the following record is the query input.
What measured pIC50 goes with O=C(c1cccc(Cc2n[nH]c(=O)c3ccccc23)c1)N1CCN(/[N+]([O-])=N/Oc2ccc([N+](=O)[O-])cc2[N+](=O)[O-])CC1 ?
5.19

====

pIC50 values, listed per item
- System: NCI-H322M
- protocol description: In vitro antiproliferative activity against human NCI-H322M cells assessed as inhibition of cell proliferation after 72 hrs by MTT assay
- Format: functional, cell-based
// returns pIC50 (minus log10 of molar concentration), number only

INSERT INTO assay_data (line_notation, readout_type, obs_value) VALUES
  ('O=C(c1cc(Cc2n[nH]c(=O)c3ccccc23)ccc1F)N1CCN(/[N+]([O-])=N/Oc2ccc([N+](=O)[O-])cc2[N+](=O)[O-])CC1', 'pIC50', 5.10);

Could you tell me which pIC50 is on file for O=C(c1cccc(Cc2n[nH]c(=O)c3ccccc23)c1)N1CCN(/[N+]([O-])=N/Oc2ccc([N+](=O)[O-])cc2[N+](=O)[O-])CC1 ?
5.05
